Hi there, I'd appreciate the recorded Activity for every entry that follows.
Assay Overview: Induction of ascorbic acid oxidation preincubated for 60 mins in presence of Cu2++
Type: physicochemical
Parameters: concentration or dose not given beside the values
Experimental Conditions: 1 h
# unit: % | format: bare number

Task: State its Activity for this molecule: N[C@@H](CCC(=O)N[C@@H](CS)C(=O)O)C(=O)O
Result: 89.6

Task: Output Activity of N[C@@H](CS)C(=O)O
Result: 80.35

Task: Consider the molecule N[C@@H](CCC(=O)N[C@@H](CS)C(=O)NCC(=O)O)C(=O)O and give its recorded Activity.
Result: 84.2

Task: Look up Activity of N[C@@H](CCS)C(=O)O and report it.
Result: 86.1

Task: Quickly give me recorded Activity for N[C@@H](CS)C(=O)NCC(=O)O
Result: 94.31

* * *

Kindly supply the reported Activity values for the records listed here.
Assay Overview: Induction of ascorbic acid oxidation preincubated for 3 mins in presence of Cu2++
Format: physicochemical
Parameters: concentration or dose not given beside the values
Experimental Conditions: 0.05 h
Your answer should be a plain number; it is taken to be in %.

Task: Look up and state reported Activity for N[C@@H](CS)C(=O)NCC(=O)O
Result: 79.8

Task: Recall and state the measured Activity for N[C@@H](CCS)C(=O)O .
Result: 81.1

Task: Look up Activity of N[C@@H](CS)C(=O)O and report it.
Result: 74.35

Task: Report Activity, nothing else, for this compound: N[C@@H](CCC(=O)N[C@@H](CS)C(=O)NCC(=O)O)C(=O)O
Result: 81.3

Task: Identify measured Activity associated with N[C@@H](CCC(=O)N[C@@H](CS)C(=O)O)C(=O)O
Result: 81.4

* * *

Provide the recorded Activity for the entries that follow.
Assay Overview: Induction of ascorbic acid oxidation preincubated for 30 mins in presence of Cu2++
Type: physicochemical
Experimental Conditions: 0.5 h
Report only the number, with the unit % understood.

Task: Item N[C@@H](CCC(=O)N[C@@H](CS)C(=O)NCC(=O)O)C(=O)O : provide Activity
Result: 83.2

Task: Report measured Activity; entry is N[C@@H](CCS)C(=O)O
Result: 84.1

Task: Specify Activity for N[C@@H](CCC(=O)N[C@@H](CS)C(=O)O)C(=O)O and stop.
Result: 87.4

Task: Specify measured Activity for N[C@@H](CS)C(=O)O .
Result: 77.34

Task: // Input: N[C@@H](CS)C(=O)NCC(=O)O . Output its Activity only.
Result: 92.28

* * *

Assay Overview: Induction of ascorbic acid oxidation preincubated for 300 mins in presence of Cu2++
Type: physicochemical
Experimental Conditions: 5 h
Under this convention, Y denotes Activity strictly below 90% and N denotes Activity at or above 90%.

Task: Confirm or reject: Activity of N[C@@H](CCC(=O)N[C@@H](CS)C(=O)NCC(=O)O)C(=O)O lies strictly below 90%
Result: Y

Task: Record N[C@@H](CCC(=O)N[C@@H](CS)C(=O)O)C(=O)O : is its Activity strictly below 90%?
Result: N

Task: Bench note: check whether N[C@@H](CS)C(=O)NCC(=O)O shows Activity below 90%
Result: N

Task: Threshold test, Activity < 90%: N[C@@H](CCS)C(=O)O
Result: Y

Task: Lab note: Activity threshold 90%. Does this molecule come in strictly under it? N[C@@H](CS)C(=O)O
Result: Y
